assay: Pharmacokinetic test in rats; type: in vivo; conditions: rat, plasma, 5 mg/kg; SD rats, PO @5mpk; read-out: t½ (converted)
Endpoint name: half-life (min)
# output: bare number, implied unit min

Item under review: O=C(Nc1cn2ccnc2c(N2CCC(F)(F)CC2)n1)c1ccc(NS(=O)(=O)CCO)cc1N1CCC2(CC1)CC2 . Reported half-life?
354

Item under review: O=C(Nc1cc2ccccc2c(N2CCC(F)(F)CC2)n1)c1ccc(NS(=O)(=O)CCO)cc1N1CCC2(CC1)CC2 . Reported half-life?
3350

Item under review: CS(=O)(=O)Nc1ccc(C(=O)Nc2cn3ccnc3c(N3CCC(F)(F)CC3)n2)c(N2CC3CCC(C3)C2)c1 . Reported half-life?
732

Item under review: O=C(Nc1cc2cccnc2c(N2CCC(F)(F)CC2)n1)c1ccc(NS(=O)(=O)CCO)cc1N1CCC2(CC1)CC2 . Reported half-life?
636

Item under review: O=C(Nc1cc2c(c(N3CCC(F)(F)CC3)n1)COC2)c1ccc(NS(=O)(=O)CCO)cc1N1CCC2(CC1)CC2 . Reported half-life?
384
